Counter-ions that a name gives are not always drawn.
PROPERTY_NAME: melting point

Challenge: # melting point lookup, item COc1ccc(S(=O)(=O)N2CCc3cccc(NS(=O)(=O)c4ccccc4)c32)cc1 [compound 29]
Response given: 143 to 145 °C

Challenge: # melting point lookup, item COc1ccc(S(=O)(=O)N2CCc3cccc(NC(=O)c4cccs4)c32)cc1 [compound 28]
Response given: 188 to 189 °C

Challenge: # melting point lookup, item COc1ccc(S(=O)(=O)N2CCc3cccc(NC(=O)Oc4ccccc4)c32)cc1
Response given: 164 to 166 °C

Challenge: # melting point lookup, item COc1ccc(S(=O)(=O)N2CCc3cccc(NC(=O)N(C)c4ccccc4)c32)cc1 [compound 33]
Response given: 199 to 201 °C

Challenge: # melting point lookup, item COc1ccc(S(=O)(=O)N2CCc3cc(Br)cc(NC(=O)c4ccco4)c32)cc1 [compound 38]
Response given: 170 to 171 °C

Challenge: # melting point lookup, item COc1ccc(S(=O)(=O)N2CCc3cccc(NC(=O)c4ccc([N+](=O)[O-])cc4)c32)cc1 [compound 22]
Response given: 151 to 152 °C

Challenge: # melting point lookup, item COc1ccc(S(=O)(=O)N2CCc3cccc(NC(=O)c4ccco4)c32)cc1 [compound 27]
Response given: 163 to 164 °C

Challenge: # melting point lookup, item COc1ccc(S(=O)(=O)N2CCc3cccc(NC(=O)c4ccc(F)cc4)c32)cc1 [compound 21]
Response given: 184 to 185 °C

Challenge: # melting point lookup, item COc1ccc(S(=O)(=O)N2CCc3cccc(NC(C)=O)c32)cc1 [compound 35]
Response given: 154 to 155 °C

Challenge: # melting point lookup, item COc1ccc(S(=O)(=O)N2CCc3cccc(NC(=O)c4ccncc4)c32)cc1 (as salt: HCl) [compound 26]
Response given: 219 to 220 °C

Challenge: # melting point lookup, item COc1ccc(S(=O)(=O)N2CCc3cccc(NC(=O)c4ccc(C#N)cc4)c32)cc1 [compound 23]
Response given: 179 to 180 °C

Challenge: # melting point lookup, item COc1ccc(S(=O)(=O)N2CCc3cccc(NC(=O)c4ccccc4)c32)cc1 [compound 20]
Response given: 205 to 206 °C

Challenge: # melting point lookup, item COc1ccc(S(=O)(=O)N2CCc3cc(Br)cc(NC(=O)c4ccncc4)c32)cc1 [compound 37]
Response given: 191 to 192 °C

Challenge: # melting point lookup, item COc1ccc(S(=O)(=O)N2CCc3cccc(NCc4ccccc4)c32)cc1 [compound 34]
Response given: 162 to 163 °C

Challenge: # melting point lookup, item COc1ccc(S(=O)(=O)N2CCc3cccc(NS(=O)(=O)c4ccc(F)cc4)c32)cc1 [compound 31]
Response given: 104 to 105 °C
